Each recorded value in this set is attributed to patent US12565501B2.

Overview of reported IC50 across a group of compounds:
target: human M1 receptor (Homo sapiens, UniProt P11229); experiment: In vitro functional assay of muscarinic acetylcholine receptor activity (aequorin calcium flux, reversal of EC80 acetylcholine response); assay type: cell-based; settings: CHO-K1 cells stably expressing human M1 receptor with aequorin; acetylcholine at EC80; calcium flux (luminescence); read-out: M1 IC50

compound: COc1ccccc1C1(NCC(=O)N2CC3CCC(C2)N3c2ccc(C#N)cn2)CC1 [Example 97]
IC50: < 10 nM
//
compound: COc1cc(C2(NCCC(=O)N3CC4CCC(C3)N4c3ccc(C#N)cn3)CC2)ccn1 [Example 36]
IC50: 1000 to 10000 nM
//
compound: N#Cc1ccc(N2[C@@H]3COC[C@H]2CN(C(=O)CCNC2(c4ccc(F)c(F)c4)CC2)C3)nc1 [Example 39]
IC50: 100 to 1000 nM
//
compound: CC(c1ccccc1)[S+]([O-])CC(=O)N1CC2CCC(C1)N2c1ccc(C#N)cn1 (racemic) [Example 168]
IC50: 1000 to 10000 nM

###

biological target: human M1 receptor (Homo sapiens); assay: In vitro functional assay of muscarinic acetylcholine receptor activity (aequorin calcium flux, reversal of EC80 acetylcholine response); type: cell-based; conditions: CHO-K1 cells stably expressing human M1 receptor with aequorin; acetylcholine at EC80; calcium flux (luminescence); read-out: M1 IC50
pIC50: −log10 of the molar value.
quantity measured: pIC50

compound: N#Cc1ccc(N2C3CC[C@H]2CN(C(=O)COC2(c4ccc(F)c(F)c4)CCC2)C3)nc1 [Example 239]
data value: > 8.00
//
compound: N#Cc1ccc(N2C3CCC2CN(C(=O)COC2(c4cncc(F)c4)CCC2)C3)nc1 [Example 251]
data value: 6.00 to 7.00
//
compound: COc1cc([C@H](C)NCC(=O)N2CC3CCC(C2)N3c2ccc(C#N)cn2)ccc1F [Example 66]
data value: > 8.00
//
compound: N#Cc1ccc(N2C3CCC2CN(C(=O)COC2(c4ccc(Br)cc4)CC2)C3)nc1 [Example 208]
data value: 6.00 to 7.00

###

molecular target: human M1 receptor (Homo sapiens); assay: In vitro functional assay of muscarinic acetylcholine receptor activity (aequorin calcium flux, reversal of EC80 acetylcholine response); format: cell-based; conditions: M1 IC50, CHO-K1 cells stably expressing human M1 receptor with aequorin; acetylcholine at EC80; calcium flux (luminescence)
Counter-ions that a name gives are not always drawn.

molecule: N#Cc1ccc(N2C3CCC2CN(C(=O)CCNC2(c4ccc(F)c(C#N)c4)CC2)C3)nc1 [Example 288, formic acid Salt]
IC50: 0.01 to 0.1 µM

###

Overview of reported pIC50 across a group of compounds:
Target: human M1 receptor (Homo sapiens, UniProt P11229)
Sequence (P11229 1-460): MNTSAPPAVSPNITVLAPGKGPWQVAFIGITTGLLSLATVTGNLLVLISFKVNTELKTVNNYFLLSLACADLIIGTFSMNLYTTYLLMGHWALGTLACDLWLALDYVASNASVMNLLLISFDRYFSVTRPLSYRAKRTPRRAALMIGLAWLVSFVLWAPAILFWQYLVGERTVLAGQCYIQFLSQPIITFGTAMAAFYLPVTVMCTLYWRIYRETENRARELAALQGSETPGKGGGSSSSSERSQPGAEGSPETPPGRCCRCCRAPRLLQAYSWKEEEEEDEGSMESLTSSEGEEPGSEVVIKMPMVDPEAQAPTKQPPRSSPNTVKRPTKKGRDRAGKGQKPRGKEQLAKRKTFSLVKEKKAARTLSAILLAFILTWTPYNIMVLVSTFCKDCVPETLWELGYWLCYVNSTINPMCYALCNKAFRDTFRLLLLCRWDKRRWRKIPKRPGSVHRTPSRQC
Experiment: In vitro functional assay of muscarinic acetylcholine receptor activity (aequorin calcium flux, reversal of EC80 acetylcholine response)
Type: cell-based
Conditions: CHO-K1 cells stably expressing human M1 receptor with aequorin; acetylcholine at EC80; calcium flux (luminescence); read-out: M1 IC50
pIC50: −log10 of the molar value.
quantity measured: pIC50

compound: N#Cc1ccc(N2C3CCC2CN(C(=O)CNC2(c4ccc(F)cc4F)CC2)C3)cc1 [Example 85]
system tested: human M1 receptor (Homo sapiens, UniProt P11229)
data value: 7.00 to 8.00
--
compound: N#Cc1ccc(N2C3CCC2CN(C(=O)CNC2(c4cccc(F)c4F)CC2)C3)nc1 [Example 70]
system tested: human M1 receptor (Homo sapiens, UniProt P11229)
data value: 6.00 to 7.00
--
compound: COc1ccncc1C(F)(F)/C=C/C(=O)N1C[C@H]2CC[C@@H](C1)N2c1ccc(C#N)cn1 [Example 143]
system tested: human M1 receptor (Homo sapiens, UniProt P11229)
data value: > 8.00
--
compound: N#Cc1ccc(N2[C@@H]3CC[C@H]2CN(C(=O)CCNC2(c4ncccc4F)CC2)C3)nc1 [Example 20]
system tested: human M1 receptor (Homo sapiens, UniProt P11229)
data value: 5.00 to 6.00
--
compound: N#Cc1ccc(N2C3CCC2CN(C(=O)COC2(c4ccc(F)c(Br)c4)CC2)C3)nc1 [Example 215]
system tested: human M1 receptor (Homo sapiens, UniProt P11229)
data value: 7.00 to 8.00
--
compound: COc1cnccc1C(F)(F)CCC(=O)N1CC2CCC(C1)N2c1ccc(C#N)cn1 [Example 140]
system tested: human M1 receptor (Homo sapiens, UniProt P11229)
data value: > 8.00
--
compound: N#Cc1ccc(N2C3CCC2CN(C(=O)COC2(c4c(F)cncc4F)CCC2)C3)nc1 [Example 316]
system tested: human M1 receptor (Homo sapiens, UniProt P11229)
data value: > 8.00
--
compound: COc1cccc([C@H](C)NCC(=O)N2CC3CCC(C2)N3c2ccc(C#N)cn2)c1 [Example 92]
system tested: human M1 receptor (Homo sapiens, UniProt P11229)
data value: > 8.00
--
compound: COc1cc(C(F)(F)C2CC2C(=O)N2CC3CCC(C2)N3c2ccc(C#N)cn2)ccn1 (racemic) [Example 166]
system tested: human M1 receptor (Homo sapiens, UniProt P11229)
data value: 5.00 to 6.00
--
compound: N#Cc1ccc(N2C3CCC2CN(C(=O)CNC2(c4ccc(F)cn4)CC2)C3)nc1 [Example 69]
system tested: human M1 receptor (Homo sapiens, UniProt P11229)
data value: 6.00 to 7.00
--
compound: N#Cc1ccc(N2C3CCC2CN(C(=O)COC2(c4ccc(F)c(F)c4)CC2)C3)nc1 [Example 177]
system tested: human M1 receptor (Homo sapiens, UniProt P11229)
data value: 7.00 to 8.00
--
compound: N#Cc1ccc(N2C3CCC2CN(C(=O)COC2(c4cccc(F)c4)CCC2)C3)nc1 [Example 235]
system tested: human M1 receptor (Homo sapiens, UniProt P11229)
data value: 7.00 to 8.00
--
compound: COc1cncc(C(OCC(=O)N2CC3CCC(C2)N3c2ccc(C#N)cn2)C(F)F)c1 (racemic) [Example 202]
system tested: human M1 receptor (Homo sapiens, UniProt P11229)
data value: > 8.00
--
compound: COc1cc(F)cc(C2(NCC(=O)N3CC4CCC(C3)N4c3ccc(C#N)cn3)CC2)c1 [Example 110]
system tested: human M1 receptor (Homo sapiens, UniProt P11229)
data value: > 8.00
--
compound: COc1ccc(F)c(C2(NCC(=O)N3CC4CCC(C3)N4c3ccc(C#N)cn3)CCC2)c1F [Example 117]
system tested: human M1 receptor (Homo sapiens, UniProt P11229)
data value: 6.00 to 7.00
--
compound: N#Cc1ccc(N2[C@@H]3CC[C@H]2CN(C(=O)CCNC2(c4cccnc4)CC2)C3)nc1 [Example 19]
system tested: human M1 receptor (Homo sapiens, UniProt P11229)
data value: 6.00 to 7.00
--
compound: COc1cccc(C2(OCC(=O)N3CC4CCC(C3)N4c3ccc(C#N)cn3)CCC2)n1 [Example 253]
system tested: human M1 receptor (Homo sapiens, UniProt P11229)
data value: > 8.00
--
compound: N#Cc1ccc(N2C3CCC2CN(C(=O)COC2(c4ncc(F)cc4F)CCC2)C3)nc1 [Example 271]
system tested: human M1 receptor (Homo sapiens, UniProt P11229)
data value: 6.00 to 7.00
--
compound: N#Cc1ccc(N2C3CCC2CN(C(=O)COC2(c4cccc5nccnc45)CC2)C3)nc1 [Example 231]
system tested: human M1 receptor (Homo sapiens, UniProt P11229)
data value: 7.00 to 8.00
--
compound: N#Cc1ccc(N2C3CCC2CN(C(=O)CNC2(c4ccc(F)c(F)c4)CC2)C3)nc1 [Example 60]
system tested: human M1 receptor (Homo sapiens, UniProt P11229)
data value: 7.00 to 8.00
--
compound: N#Cc1ccc(N2[C@@H]3CC[C@H]2CN(C(=O)CCNC2(c4ccc(F)nc4)CC2)C3)nc1 [Example 28]
system tested: human M1 receptor (Homo sapiens, UniProt P11229)
data value: > 8.00
--
compound: N#Cc1ccc(N2C3CCC2CN(C(=O)COC2(c4cccc(F)c4F)CC2)C3)nc1 [Example 211]
system tested: human M1 receptor (Homo sapiens, UniProt P11229)
data value: 7.00 to 8.00
--
compound: CC(OCC(=O)N1CC2CCC(C1)N2c1ccc(C#N)cn1)c1cccc2ncnn12 (racemic) [Example 191]
system tested: human M1 receptor (Homo sapiens, UniProt P11229)
data value: 7.00 to 8.00
--
compound: N#Cc1ccc(N2C[C@H]3CC[C@@H]2CN3C(=O)CNC2(c3ccc(F)cc3F)CC2)nc1 [Example 81]
system tested: human M1 receptor (Homo sapiens, UniProt P11229)
data value: < 6.00
--
compound: C[C@H](OCC(=O)N1CC2CCC(C1)N2c1ccc(C#N)cn1)c1ccccc1 [Example 179]
system tested: human M1 receptor (Homo sapiens, UniProt P11229)
data value: 6.00 to 7.00
--
compound: N#Cc1ccc(N2C3CCC2CN(C(=O)COC2(c4ccc(Cl)c(Cl)c4)CC2)C3)nc1 [Example 214]
system tested: human M1 receptor (Homo sapiens, UniProt P11229)
data value: 7.00 to 8.00
--
compound: COc1ccc(C2(OCC(=O)N3CC4CCC(C3)N4c3ccc(C#N)cn3)CCC2)cn1 [Example 257]
system tested: human M1 receptor (Homo sapiens, UniProt P11229)
data value: 5.00 to 6.00
--
compound: CC(C)(OCC(=O)N1CC2CCC(C1)N2c1ccc(C#N)cn1)c1cccc2nccn12 (racemic) [Example 204]
system tested: human M1 receptor (Homo sapiens, UniProt P11229)
data value: 6.00 to 7.00
--
compound: N#Cc1ccc(N2C3CCC2CN(C(=O)CNC2(c4ccccn4)CC2)C3)nc1 [Example 63]
system tested: human M1 receptor (Homo sapiens, UniProt P11229)
data value: 5.00 to 6.00
--
compound: N#Cc1ccc(N2C3CCC2CN(C(=O)COC2(c4ccccc4F)CCC2)C3)nc1 [Example 236]
system tested: human M1 receptor (Homo sapiens, UniProt P11229)
data value: 6.00 to 7.00
--
compound: COc1cncc(C2(OCC(=O)N3CC4CCC(C3)N4c3ccc(C#N)cn3)CCC2)c1 [Example 233]
system tested: human M1 receptor (Homo sapiens, UniProt P11229)
data value: > 8.00
--
compound: CCC(OCC(=O)N1CC2CCC(C1)N2c1ccc(C#N)cn1)c1ccc(F)c(Br)c1 (racemic) [Example 216]
system tested: human M1 receptor (Homo sapiens, UniProt P11229)
data value: > 8.00
